- test.description: Pancreas tissue pharmacokinetics after single intragastric dose
- Type: in vivo, mice
- condition.parameters: female, ICR-SCID, mouse, pancreas / serum, oral, 250 mg/kg; at 8 h; read-out: Cmax in pancreas relative to serum
metric: Kp at 8 h
I'd appreciate a reply containing only the number, no unit.

Give its Kp at 8 h value. Item: COc1cc(/C=C/C(=O)C(=Cc2ccc(F)c(F)c2)C(=O)/C=C/c2ccc(O)c(OC)c2)ccc1O [CDF] 44.5

----------
- test.description: Serum pharmacokinetics after single intragastric dose
- Type: in vivo, mice
- condition.parameters: female, ICR-SCID, mouse, po; serum, 250 mg/kg single intragastric
metric: AUC(0-t) (ng·h/mL)
Numbers only here, please. The scale is ng·h/mL.

Give its AUC(0-t) value. Item: COc1cc(/C=C/C(=O)C(=Cc2ccc(F)c(F)c2)C(=O)/C=C/c2ccc(O)c(OC)c2)ccc1O [CDF] 1220
